system-tested: T1, recombinant human latent myostatin (human, UniProt O14793 24-375, biotinylated (in the Octet pH assay only))
T1 construct: also called biotinylated human latent myostatin
protocol-notes: BLI Octet Red384, biotin human latent myostatin on streptavidin tips
recorded-metric: fold difference in off-rate (Kd at pH 5.5 / Kd at pH 7.4)

binder	value
Ab105 (antibody, human IgG4 S228P, kappa, V domains shown) VH: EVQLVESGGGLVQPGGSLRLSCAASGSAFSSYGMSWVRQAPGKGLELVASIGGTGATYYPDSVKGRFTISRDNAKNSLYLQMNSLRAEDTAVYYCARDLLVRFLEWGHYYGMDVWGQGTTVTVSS VL: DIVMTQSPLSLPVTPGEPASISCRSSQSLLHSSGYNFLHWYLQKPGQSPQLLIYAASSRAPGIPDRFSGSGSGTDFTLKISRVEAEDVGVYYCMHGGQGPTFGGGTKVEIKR	0.8 fold

Now for a further binder.
Return reported fold difference in off-rate (Kd at pH 5.5 / Kd at pH 7.4); argument: Ab102 (antibody, human IgG4 S228P, kappa, V domains shown) VH: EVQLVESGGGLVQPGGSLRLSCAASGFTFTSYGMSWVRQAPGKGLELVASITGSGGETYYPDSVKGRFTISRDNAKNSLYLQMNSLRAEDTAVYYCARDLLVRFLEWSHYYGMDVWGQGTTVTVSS VL: DIVMTQSPLSLPVTPGEPASISCRSSQSLLHSSGHNFLHWYLQKPGQSPQLLIYETSNRAPGIPDRFSGSGSGTDFTLKISRVEAEDVGVYYCMQATQFPRPFGGGTKVEIKR
9.3 fold
